- Experiment notes: soluble on expression in E. coli; label from the status in PepcDB or PDB records
Measure: soluble on expression in E. coli

Some sequences with known soluble on expression in E. coli results, for comparison:
MSNNNKYFTITKKQYKKMRRNKIELLFNVKVLKKKNGRQKFKILHEVENKPKIPIKIIEDQPESPKPLKPPKPPKPPKGPDNPEEPDSPEEPKETDQPGGPDNPNAGNKKMPTPEEYVTRKEFNEFKDSNNQRLTKIENKVDKLEVKVDKLAEIVQTQGEEIKELKVEQKAQSETLQLILKTLQKMNDRLDRMETRLDKIDSPKLEHHHHHH; soluble
MGSDKIHHHHHHMSLALQYFKALSDETRLRLIHVLNRHELSVNELVSILEMGQSRVSRHLKILTGAGLLTSRRDGLWVFYSAAAEGDGRAFLDAVTPFVTTDMVLQADLDMAQKIIEERALKTRQFFNAIAEDWDELNREVLGGFDLAGAVAEAMPQCETAVDLGCGTGSVIERMLQRSQQVIGVDGSPRMLELARRRFVEGAERVSLRIGELDHLPLRDGEADFASINMVLHHLSDPGVALGEIRRVLRLGGQLMVTDFDRHDNERMRSDYGDRWLGFEGVQLEGLLREAGFTVRECRRQGVAKGLALHLMLAEKTQQ; not soluble
MSSKEQKTPEGQAPEEIIMDQHEEIEAVEPEASAEQVDPRDEKVANLEAQLAEAQTRERDGILRVKAEMENLRRRTELDIEKAHKFALEKFINELLPVIDSLDRALEVADKANPDMSAMVEDIELTLKSMLDVVRKFGVEVIAETNVPLDPNVHQAIAMVESDDVAPGNVLGIMQKGYTLNGRTIRAAMVTVAKAKA; soluble
MSDLVSYHLDDGVATLTLNNGKVNAISPDVIIAFNAALDQAEKDRAIVIVTGQPGILSGGYDLKVMTSSAEAAINLVAQGSTLARRMLSHPFPIIVACPGHAVAKGAFLLLSADYRIGVAGPFSIGLNEVQIGMTMHHAGIELARDRLRKSAFNRSVINAEMFDPEGAMAAGFLDKVVSVEELQGAALAVAAQLKKINMNAHKKTKLKVRKGLLDTLDAAIEQDRQHML; soluble

*Q* What does the record list as soluble on expression in E. coli for "MRLLVADDHPLFRLGLKAALEAEGLEVVAEAGTGEEALVQALEKAPDAVLLDLRMPGMDGLTCARRLREMGYRGLVILLTTYQEPALLLEAYKAGADAYLSKELSAPELKRRLLRIRQGEERLTAPDIPALTPREEEVLRLLAEGLSTKEIARALRLSPETVRSHLESLYAKLEARNRVEALSRARSLGLLP" ?
*A* soluble

*Q* What does the record list as soluble on expression in E. coli for "MQNETRTLQLDPHLHIEAYRFKGIMQKFPNHFHDYYVIGFIEKGQRYLACQDQEYIINPGDLLLFNPRDTHSCEQIDGRTLDYRCINVMPDIMEKAVKEITGSGHLPYFSQHVLFRHELTASLQELHILISEEKQALRKEELFLHLLEELIRHYSDVTFLSSVPEPSDEVKMVCE" ?
*A* not soluble

*Q* What does the record list as soluble on expression in E. coli for "MSEKWIPEIMTPLKQDIVKMPEIIRQASGIKIFGRKIKSIIFTTDIAIIRNTDAQAVIAVYPFTPHPAITKGIIEAADIPVFSGVGGGLTQGMRSAYMSLFAEAQGSMGVVLNGPTPIETIKMVDEAIDIPIISTVTSIHTPIDEKLAAGVDMINISAGKDTAATVRYFRGKYPELPIIATGGPTESSIHETIIAGANAITYTPPSNGELFSKKMKKYREQEKATDEE" ?
*A* soluble

* * *

- Experiment notes: soluble on expression in E. coli; label from the status in PepcDB or PDB records
Measure: soluble on expression in E. coli

MGSDKIHHHHHHMEPGSQVTDRLRFGCTGCGKCCTGHHVPLTLAEARRWAEDAGQVVVLIEAFVVDGPGMPLEQRDHVLRRSHPVHCGEGEARVSVTFAAFNPGRCRNLDANDLCTIYEQRPLVCRIYPVEINPHIPLRPDSKDCPPEAWQQGPELIHGTQLVDVELQALVQASRQADRDDIAAKVAVCQALGMTTSALKGNGFTAYLPDMGAFAAALAQVQGNEGAQWTLHVQDEALTASLQALGLRTTHETPVYYAFIGF; not soluble
MILSVHILDQQTGKPAPGVEVVLEQKKDNGWTQLNTGHTDQDGRIKALWPEKAAAPGDYRVIFKTGQYFESKKLDTFFPEIPVEFHISKTNEHYHVPLLLSQYGYSTYRGS; soluble
FVKSGWLLRQSTILKRWKKNWFDLWSDGHLIYYDDQTRQSIEDKVHMPVDCINIRTGHECRDIQPPDGKPRDCLLQIVCRDGKTISLCAESTDDCLAWKFTLQDSRT; soluble
MGSDKIHHHHHHMIMATLKDIAKLAKVSQATVSRVLNKDETLSVSQKTKHRILMVADELGYQKHLKTTNSPQVRQKIAIVQWYSQQEELNDLYYYSIRIGIEKRAQELDYDIVRYFDNDISKVSADIVGLIAIGKFSTYQIAELEKLSDKLIFVDSDTLNAGYPCVMTDFDNAVVKVLDYFLDHGLTKIGMIAGEEKTTDGRELLIDQRFRTFRNYAYEQDIYNPNYIFIGDFSAQTGYHLMKKAIKELKENLPQAFFIANDSLAIGALRALQEANIPVPNRVSLISFNDTALTKQVFPALSSITVFTKEMGRTAVDILNRQILNPDIIPSMTRLTTQLTLRESSI; not soluble

* * *

- Experiment notes: soluble on expression in E. coli; label from the status in PepcDB or PDB records
Measure: soluble on expression in E. coli

MNLFYNPKYVGDVAFLQIEPVEGELNYNKKGNVVEITNEGNVVGYNIFEISKDITIEEKGHIKLTDELVNVFQKRISEAGFDYKLNADLSPKFVVGYVETKDKHPDADKLSVLNVNVGNDTLQIVCGAPNVEAGQKVVVAKVGAVMPSGMVIKDAELRGVASSGMICSMKELNLPNAPEEKGIMVLNDSYEIGQAFFELEHHHHHH; soluble
MGTRNVRPGDRISAAIVAITDDSVFVATGSKVDGVIDRRELEEADGSLPYAVGDRVDLYVTAVNGQEIRLSKGLSGQGGAAVLEEARDSGVPVEGRVTGTCKGGYNVDVLRKRAFCPGSQIDLHQLEDAESVVGQTFQFLVTRVEQHGRNIVVSRRALLERERDAALATFLEGVKEGDVLEGTVTRLAPFGAFVEIAPGVDGMVLEHHHHHH; soluble

* * *

- Experiment notes: soluble on expression in E. coli; label from the status in PepcDB or PDB records
Measure: soluble on expression in E. coli

MGHHHHHHSHMKNYYYFLGQGLTLSPRLECSSTISAHCNLHLLGSSNSPVAASPVAGTTGTCHHDWLIFVFLVETGFHHIGQTGLEFLTSGDPPTLASKSAGITGVSHCAWPTFLLNDMRHSFNKNLVIIFYVPAIS; not soluble
SLADHMLKRACEWMRFLGYTVYYPECHYDNDILKTCIEKKLVLLTRDIELYKRYALSVYIDSVNINEQIIQITRQFPPDPGKFMTKCPDCGSDLILMRSNGLDIPDKIKKSFSMVRYCNKCSKAFWPGTHYIKIIEKINRLLK; not soluble
MGSDKIHHHHHHMVRQRMTGKERREQLISIGRAVFAERGFDGASVEEIAARANVSKPVVYEHFGGKEGLYAVVIDREMVKLEAMITGSLQHGRSRYRIEQAVLALLTYVEDETDGFLILVRDMRPGERRSYGTLLNDATTQVSHILGNAFTRSGLNAEYANLYGQALVGMVSMTAQWWLDERTPPKEEVAAHIVNLCWNGLTGMEADPKLTPISSAEGAIFGQEKESEA; not soluble

* * *

- Experiment notes: soluble on expression in E. coli; label from the status in PepcDB or PDB records
Measure: soluble on expression in E. coli

GPGSMQSDFDNVETELRDIEETFTTGRMNAFGSASTQDAFVHELKRIAEIETQVFYRTCALLKSSHTNEHQLVTNMYASAQPPPQSQRSGPATTSPSSNLGDGSFRANSSGLESSMYRGPMNQRSQSSFASTVAGGLSGAPPSNSNIHSSSASRRQSRQGWENVSAGSPFPGVGDGGASSGAAPHIHRSEWGNEDGFADKAFEDVAAHFEELESQFFSLGDYLREISKHVIRLNDMSKQVNNGVNYGANGGVTGAPAAAANANGSSNNTDMLQTVGSMGRQDYPGSFIDPTSIGGGSGYGMDGPHS; soluble
MAHHHHHHMMKEETLNSDNSSAEVSVESPSFSFNCAHFIAYNGFRETLHGHNYNVSLKVRGYVRDDGYVIDFSILKEKVKKVCNKLDHHFILPIYSDVLKFENVKNNIKIICEDNSEYSFPERDCIKLPIKHSSTEEIGQYILNQLIEEMDVSLLKSRHIHYIEISVSESPTQKAIVHKYI; soluble
